All values here come from PubChem BioAssay AID651833.

Recorded activation for the following compounds
# Assayed target: Kelch-like ECH-associated protein 1 (Homo sapiens) + Nuclear factor erythroid 2-related factor 2 (Homo sapiens) (UniProt Q14145+Q16236)
# Sequence (Q14145 whole entry, looked up): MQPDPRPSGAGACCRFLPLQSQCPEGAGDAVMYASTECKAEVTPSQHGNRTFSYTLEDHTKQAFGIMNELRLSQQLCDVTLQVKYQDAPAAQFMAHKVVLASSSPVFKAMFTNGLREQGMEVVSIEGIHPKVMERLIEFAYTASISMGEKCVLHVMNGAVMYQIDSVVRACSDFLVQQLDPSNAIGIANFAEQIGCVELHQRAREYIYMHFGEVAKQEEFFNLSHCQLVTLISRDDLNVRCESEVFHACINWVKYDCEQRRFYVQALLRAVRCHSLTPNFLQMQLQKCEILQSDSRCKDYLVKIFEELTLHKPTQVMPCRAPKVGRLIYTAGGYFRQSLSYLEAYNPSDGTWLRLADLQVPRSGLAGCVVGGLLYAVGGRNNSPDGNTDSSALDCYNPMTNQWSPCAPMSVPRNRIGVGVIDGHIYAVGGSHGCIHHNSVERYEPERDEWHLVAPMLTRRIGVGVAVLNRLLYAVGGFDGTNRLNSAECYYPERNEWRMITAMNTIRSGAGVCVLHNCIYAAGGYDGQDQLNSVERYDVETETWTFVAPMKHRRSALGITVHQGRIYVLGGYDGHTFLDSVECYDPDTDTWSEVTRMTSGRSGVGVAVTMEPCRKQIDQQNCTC
# Sequence (Q16236 whole entry, looked up): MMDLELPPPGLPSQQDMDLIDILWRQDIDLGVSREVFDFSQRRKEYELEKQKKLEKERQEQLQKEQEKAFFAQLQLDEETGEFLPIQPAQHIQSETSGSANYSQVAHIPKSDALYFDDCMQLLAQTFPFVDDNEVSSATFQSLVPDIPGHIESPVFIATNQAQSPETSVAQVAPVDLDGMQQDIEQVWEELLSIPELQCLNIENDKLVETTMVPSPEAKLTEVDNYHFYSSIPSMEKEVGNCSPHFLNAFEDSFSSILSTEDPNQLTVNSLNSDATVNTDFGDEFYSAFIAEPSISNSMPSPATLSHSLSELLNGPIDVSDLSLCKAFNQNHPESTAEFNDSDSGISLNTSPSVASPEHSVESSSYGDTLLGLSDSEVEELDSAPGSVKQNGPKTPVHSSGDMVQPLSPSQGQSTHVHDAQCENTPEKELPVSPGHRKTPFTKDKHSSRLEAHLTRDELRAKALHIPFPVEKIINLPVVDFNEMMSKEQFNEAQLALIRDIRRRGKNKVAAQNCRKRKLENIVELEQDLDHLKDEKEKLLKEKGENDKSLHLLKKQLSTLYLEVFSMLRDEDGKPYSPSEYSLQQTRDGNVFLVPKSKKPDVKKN
# Test: Nrf2 nuclear translocation activators in cells, dose response, orthogonal assay for Keap1-Nrf2 interaction inhibitor project, PathHunter, U2OS cells, dry powder (AID 651833)
# Applied conditions: beta-gal luminescence, 3 h, at 38 µM (top of the series)
Your answer should be a plain number; it is taken to be in %.

* O=C(O)[C@H]1CCCC[C@H]1C(=O)N1CCc2ccccc2C1 (racemic) | -0.662

Task: Give its activation value. Item: O=C(O)C1CCCCC1C(=O)N1CCc2ccccc2C1CN1C(=O)[C@H]2CCCC[C@H]2C1=O (stereo not given in full)
Result: 4.38

Task: Another compound to look at: O=C(O)C1CCCCC1C(=O)N1CCc2ccccc2[C@H]1C(=O)NC12CC3CC(CC(C3)C1)C2 (stereo not given in full)
Result: -2.47

Task: Another compound to look at: O=C1c2ccccc2C(=O)N1CC1=NCCc2ccccc21
Result: -0.067

Task: Another compound to look at: COC(=O)CNc1nc(NS(=O)(=O)c2c(C)cc(C)cc2C)c2ccccc2n1
Result: 3.66
